System: human breast MDA-MB-361 tumor cell line
Assay: In vitro cell culture growth assay (MTS), MDA-MB-361
Format: cell-based
Conditions: Homo sapiens, 72 h; MDA-MB-361 cells, MTS, three days after drug treatment; read-out: IC50 MDA-MB-361
Entries and their pIC50
Scale note: pIC50 = -log10(concentration in M).

Solved entries (count: 3):
| compound | observed_result |
| --- | --- |
| CNCCN(C)C(=O)c1ccc(NC(=O)Nc2ccc(-c3nc(N4CCOCC4)nc(N4C5CCCC4COC5)n3)cc2)cc1 [Example 802] | 8.52 |
| O=C(Nc1ccc(C(=O)NCCN2CCCC2)cc1)Nc1ccc(-c2nc(N3CCOCC3)nc(N3C4CCCC3COC4)n2)cc1 [Example 798] | 8.52 |
| COCCNC(=O)c1ccc(NC(=O)Nc2ccc(-c3nc(N4CCOCC4)nc(N4C5CCCC4COC5)n3)cc2)cc1 [Example 797] | 7.96 |

Input: Item under review: CN(C)CCN(C)C(=O)c1ccc(NC(=O)Nc2ccc(-c3nc(N4CCOCC4)nc(N4CC5CCC4CO5)n3)cc2)cc1 (centres unmarked) [Example 816] . Reported pIC50?
Output: 8.70

Input: Now give it for O=C(Nc1ccncc1)Nc1ccc(-c2nc(N3CCOCC3)nc(N3CC4CCC3CO4)n2)cc1 (centres unmarked) [Example 807] too.
Output: 7.46

Input: Now give it for O=C(Nc1ccncc1)Nc1ccc(-c2nc(N3CCOCC3)nc(N3C4COCC3[C@@H](O)C4)n2)cc1 (some centres unmarked) [Example 818] too.
Output: 6.89

Input: Now give it for O=C(Nc1ccncc1)Nc1ccc(-c2nc(N3CCOCC3)nc(N3C4COCC3C(OCc3ccccc3)C4)n2)cc1 (centres unmarked) [Example 819] too.
Output: 6.35

Ref: patent US20090304692A1
